Give measured Purity Insulin Glargine for each item. Keep answers brief.
Molecular target: pre-pro-insulin glargine
Answers are plain numbers, in area %.

Completed entries (count: 4):
trypsin variant SEQ ID NO: 18 (protein) IVGGYTCAANSIPYQVSLNSGSHRCGGSLINSQWVVSAAHCYKSRIQVRLGEHNIDVLEGNEQFINAAKIITHPNFNGNTLDNDIMLIKLSSPATLNSRVATVSLPRSCAAAGTECLISGWGNTSSSGSSYPSLLQCLKAPVLSDSSCKSSYPGQITGNMICVGFLEGGKDACQGDSGGPVVCNGQLQGIVSSGYGCAQKNKPGVYTKVCNYVNWIQQTIAAN	82.6
trypsin variant SEQ ID NO: 110 (protein) IVGGYTCAANSIPYQVSLNSGSHRCGGSLINSQWVVSAAHCYKSRIQVRLGEHNIHVLEGNEQFINAAKIITHPNFNPNTLDNDIMLIKLSSPATLNSHVATVSLPRSCAAAGTECLISGWGNTCSSGSSMPSLLQCLKAPVLSDSSCKSSYPGQITGNMICVGFLEGGADACQGDSGGPVVCNGQLQGIVSSGYGCAQKNKPGVYTKVCNYVNWIQQTIAAN	90.6
trypsin variant SEQ ID NO: 103 (protein) IVGGYTCAANSIPYQVSLNSGSHRCGGSLINSQWVVSAAHCYKPRIQVRLGEHNIHVLEGNEQFINAAKIITHPNFNPNTLDNDIMLIKLSSPATLNSHVATVSLPTSCAAAGTECLISGWGNTSSSGSSMPSLLQCLKAPVLSDSSCKSSYPGQITGNMICVGFLEGGADSCQGDSGGPVVCNGQLQGIVSSGYGCAQKNKPGVYTKVCNYVNWIQQTIAAN	90.7
trypsin variant SEQ ID NO: 92 (protein) IVGGYTCAANSIPYQVSLNSGSHRCGGSLINSQWVVSAAHCYKPRIQVRLGEHNIHVLEGNEQFINAAKIITHPNFNPNTLDNDIMLIKLSSPATLNSAVATVSLPTSCAAAGTECLISGWGNTCSSGSSMPSLLQCLKAPVLSDSSCKSSYPGQITGNMICVGFLEGGKDACQGDSGGPVVCNGQLQGIVSSGYGCAQKNKPGVYTKVCNYVNWIQQTIAAN	88.1

Now consider the entry below.
Inquiry: Tell me the measured Purity Insulin Glargine of trypsin variant SEQ ID NO: 85 (protein) IVGGYTCAANSIPYQVSLNSGSHRCGGSLINSQWVVSAAHCYKPRIQVRLGEHNIHVLEGNEQFINAAKIITHPNFNPNTLDNDIMLIKLSSPATLNSHVATVSLPTSCAAAGTECLISGWGNTCSSGSSMPSLLQCLKAPVLSDSSCKSSYPGQITGNMICVGFLEGGKDACQGDSGGPVVCNGQLQGIVSSGYGCAQKNKPGVYTKVCNYVNWIQQTIAAN , please.
Reply text: 85.4

Where do these numbers come from? They come from patent US20230303994.
